# Test system: HCT-116
# test.details: Cytotoxicity against human HCT116 cells by MTT assay
# Assay type: functional, cell-based
IC50 reference

Answered examples (5):
smiles.structure: O=c1cc(-c2ccc3ccccc3c2)[nH]c2cc3c(cc12)OCO3
attribute.measured: IC50
value.observed: > 1000 nM
--
smiles.structure: O=c1cc(-c2cccc3ccccc23)[nH]c2cc3c(cc12)OCO3
attribute.measured: IC50
value.observed: 70 nM
--
smiles.structure: Cc1c(-c2cccc3ccccc23)c(=O)[nH]c2cc3c(cc12)OCO3
attribute.measured: IC50
value.observed: > 10000 nM
--
smiles.structure: O=c1cc(-c2csc3ccccc23)[nH]c2cc3c(cc12)OCO3
attribute.measured: IC50
value.observed: 140 nM
--
smiles.structure: O=c1cc(-c2cc3ccccc3s2)[nH]c2cc3c(cc12)OCO3
attribute.measured: IC50
value.observed: > 1000 nM

Looking up "O=c1cc(-c2cc3ccccc3o2)[nH]c2cc3c(cc12)OCO3" , I see its IC50 listed as > 1000 nM

Lab note: "O=c1cc(-c2ccnc3ccccc23)[nH]c2cc3c(cc12)OCO3" gave IC50 of > 5000 nM
